Entry source: patent US20230167118A1

- target-of-assay: BTK (Homo sapiens, UniProt Q06187)
- Construct: High control=Cell group with added DMSO and without compound, indicating microplate readings without BTK degradation; endogenous in cells; host or cells: TMD-8 cells
- Sequence (Q06187 whole entry): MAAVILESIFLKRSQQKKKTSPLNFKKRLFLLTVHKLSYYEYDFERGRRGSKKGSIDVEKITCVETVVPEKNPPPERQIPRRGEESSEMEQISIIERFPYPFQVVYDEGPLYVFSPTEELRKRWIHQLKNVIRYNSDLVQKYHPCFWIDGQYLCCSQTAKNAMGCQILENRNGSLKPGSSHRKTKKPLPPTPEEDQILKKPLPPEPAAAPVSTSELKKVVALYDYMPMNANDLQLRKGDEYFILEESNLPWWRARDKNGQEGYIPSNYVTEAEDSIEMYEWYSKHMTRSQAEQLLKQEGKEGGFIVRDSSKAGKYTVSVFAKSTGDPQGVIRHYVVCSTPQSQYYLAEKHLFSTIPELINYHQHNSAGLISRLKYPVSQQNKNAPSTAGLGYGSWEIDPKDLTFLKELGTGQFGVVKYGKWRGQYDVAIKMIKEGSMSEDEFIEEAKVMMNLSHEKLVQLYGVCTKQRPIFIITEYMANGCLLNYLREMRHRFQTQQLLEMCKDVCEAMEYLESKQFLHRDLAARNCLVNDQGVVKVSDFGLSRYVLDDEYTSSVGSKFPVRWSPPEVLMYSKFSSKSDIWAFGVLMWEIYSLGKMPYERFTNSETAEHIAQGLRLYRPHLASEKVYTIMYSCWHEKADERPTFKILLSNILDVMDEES
- assay-comment: Cell Degradation: BTK degradation in TMD-8 cells, HTRF assay
- Type: cell-based
- particulars: 6 h treatment, IC50 (DC50) of BTK degradation

{"compound": "Cc1cc(-c2ncnc3[nH]c(-c4ccc(C5CCN(CCC6CCN(c7ccc(N8CCC(=O)NC8=O)c(C)n7)CC6)CC5)cc4)cc23)ccc1CNC(=O)c1nc(C(C)(C)C)no1", "reading-qualifier": "=", "DC50 (nM)": 2.3}
{"compound": "Cc1cc(-c2ncnc3[nH]c(-c4ccc(N5CCN(CC6CCN(c7ccc(N8CCC(=O)NC8=O)cc7)CC6)CC5)nc4)cc23)ccc1[C@@H](C)NC(=O)c1noc(C(C)(C)C)n1", "reading-qualifier": "=", "DC50 (nM)": 0.6}
{"compound": "Cc1cc(-c2ncnc3[nH]c(-c4c(C)nn(C5CCN(CC6CCN(c7ccc(N8CCC(=O)NC8=O)cc7)CC6)CC5)c4C)cc23)ccc1[C@@H](C)N(C)C(=O)c1nc(C(C)(C)C)no1", "reading-qualifier": "=", "DC50 (nM)": 13.3}
{"compound": "C[C@@H](NC(=O)c1nc(C(C)(C)C)no1)c1ccc(-c2ncnc3[nH]c(-c4ccc(N5CCN(CC6CCN(c7ccc(N8CCC(=O)NC8=O)cc7)CC6)CC5)cn4)cc23)cc1CO", "reading-qualifier": "=", "DC50 (nM)": 0.17}
{"compound": "Cc1cc(-c2ncnc3[nH]c(-c4ccc(N5CCCN(CC6CCN(c7ccc(N8CCC(=O)NC8=O)cc7)CC6)CC5)cc4)cc23)ccc1[C@@H](C)NC(=O)c1nc(C(C)(C)C)no1", "reading-qualifier": "=", "DC50 (nM)": 2.61}
{"compound": "Cc1cc(-c2ncnc3[nH]c(-c4ccc(N5CCN(CCC6CCN(c7ccc([C@H]8CCC(=O)NC8=O)cc7)CC6)CC5)nc4)cc23)ccc1[C@@H](C)NC(=O)c1nc(C(C)(C)C)no1", "reading-qualifier": ">", "DC50 (nM)": 2000}
{"compound": "Cc1cc(CNC(=O)c2ccc(C(C)(C)O)cc2F)c(F)cc1-c1ncnc2[nH]c(-c3ccc(C4CCN(CC5CCN(c6ccc(N7CCC(=O)NC7=O)cc6)CC5)CC4)cc3)cc12", "reading-qualifier": "=", "DC50 (nM)": 1.5}
{"compound": "Cc1cc(-c2ncnc3[nH]c(-c4ccc(N5CCN(CC6CCN(c7ccc(C8CCC(=O)NC8=O)cc7)C6)CC5)cc4)cc23)ccc1[C@@H](C)NC(=O)c1nc(C(C)(C)C)no1 (stereo partly shown)", "reading-qualifier": "=", "DC50 (nM)": 8.42}
{"compound": "Cc1cc(-c2ncnc3[nH]c(-c4ccc(C5CCN(CC6CCN(c7cc8c(cc7F)C(=O)N(C7CCC(=O)NC7=O)C8=O)CC6)CC5)cc4)cc23)ccc1CNC(=O)c1nc(C(C)(C)C)no1 (stereo not shown)", "reading-qualifier": "=", "DC50 (nM)": 1.75}
{"compound": "Cc1cc(-c2ncnc3[nH]c(-c4ccc(C5CCN(CC6CCN(c7ccc(N8CCC(=O)NC8=O)cc7)CC6)CC5)cc4)cc23)ccc1[C@H](C)NC(=O)c1nc(C(C)(C)C)no1", "reading-qualifier": "=", "DC50 (nM)": 40.9}
